# TARGET_UNDER_TEST: Human HER3, endogenous, on human cancer cell lines (SK-Br-3, MCF7, BT-474) (human, UniProt P21860 20-1342)
# Sequence (P21860 20-1342): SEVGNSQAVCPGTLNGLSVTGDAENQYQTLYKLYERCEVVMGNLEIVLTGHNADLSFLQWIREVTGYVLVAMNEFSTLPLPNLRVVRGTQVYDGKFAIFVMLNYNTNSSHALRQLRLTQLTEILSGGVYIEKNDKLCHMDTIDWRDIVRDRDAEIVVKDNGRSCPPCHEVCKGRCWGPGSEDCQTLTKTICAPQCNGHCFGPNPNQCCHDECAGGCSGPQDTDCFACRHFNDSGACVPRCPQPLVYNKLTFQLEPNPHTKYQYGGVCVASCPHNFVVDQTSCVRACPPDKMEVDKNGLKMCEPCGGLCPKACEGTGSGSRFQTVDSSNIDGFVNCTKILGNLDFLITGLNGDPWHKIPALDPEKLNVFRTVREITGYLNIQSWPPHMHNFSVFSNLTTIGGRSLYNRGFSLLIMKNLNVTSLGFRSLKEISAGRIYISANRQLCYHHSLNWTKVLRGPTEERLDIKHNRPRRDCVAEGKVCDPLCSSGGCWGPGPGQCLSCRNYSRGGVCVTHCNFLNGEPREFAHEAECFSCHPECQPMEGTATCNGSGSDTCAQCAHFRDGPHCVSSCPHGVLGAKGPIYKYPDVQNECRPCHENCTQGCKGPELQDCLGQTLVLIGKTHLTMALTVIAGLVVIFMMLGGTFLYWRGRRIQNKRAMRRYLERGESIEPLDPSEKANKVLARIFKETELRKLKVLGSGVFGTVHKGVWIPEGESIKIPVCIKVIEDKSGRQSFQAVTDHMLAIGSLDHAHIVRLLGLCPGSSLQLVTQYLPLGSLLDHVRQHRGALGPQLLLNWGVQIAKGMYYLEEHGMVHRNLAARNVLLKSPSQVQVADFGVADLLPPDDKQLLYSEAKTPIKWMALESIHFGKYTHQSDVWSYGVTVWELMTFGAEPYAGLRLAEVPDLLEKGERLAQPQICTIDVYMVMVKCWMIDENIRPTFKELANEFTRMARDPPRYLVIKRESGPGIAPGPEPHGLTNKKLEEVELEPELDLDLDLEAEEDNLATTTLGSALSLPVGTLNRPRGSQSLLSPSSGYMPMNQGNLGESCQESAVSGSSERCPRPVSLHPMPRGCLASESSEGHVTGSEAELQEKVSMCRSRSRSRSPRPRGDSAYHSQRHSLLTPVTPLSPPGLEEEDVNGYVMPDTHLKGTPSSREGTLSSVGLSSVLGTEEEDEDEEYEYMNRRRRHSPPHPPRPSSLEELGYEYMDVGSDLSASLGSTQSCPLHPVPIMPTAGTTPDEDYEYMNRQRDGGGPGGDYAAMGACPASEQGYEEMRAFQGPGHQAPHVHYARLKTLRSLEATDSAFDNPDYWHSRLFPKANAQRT
# MEASUREMENT_NOTES: cell-based or functional assay
This section presents binders with their documented MCF7 pHER3 % inhibition values.

BINDER	QUANTITY_UNIT	MCF7 pHER3 % inhibition
MOR12509 (antibody, human IgG1, kappa, V domains shown, tested as IgG) VH: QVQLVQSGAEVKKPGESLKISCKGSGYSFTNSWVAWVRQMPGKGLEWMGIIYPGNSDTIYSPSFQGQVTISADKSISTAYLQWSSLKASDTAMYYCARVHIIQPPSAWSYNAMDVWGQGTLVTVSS VL: DIQMTQSPSSLSASVGDRVTITCRASQSITHYLNWYQQKPGKAPKLLIFGASNLQSGVPSRFSGSGSGTDFTLTISSLQPEDFATYYCQQAFVDPSTTFGQGTKVEIKR	%	70
MOR13867 (antibody, human IgG1, kappa, V domains shown, tested as IgG) VH: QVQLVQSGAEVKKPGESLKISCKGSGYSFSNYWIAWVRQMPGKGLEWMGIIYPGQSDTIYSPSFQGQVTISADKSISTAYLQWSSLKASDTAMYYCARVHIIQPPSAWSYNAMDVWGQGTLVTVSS VL: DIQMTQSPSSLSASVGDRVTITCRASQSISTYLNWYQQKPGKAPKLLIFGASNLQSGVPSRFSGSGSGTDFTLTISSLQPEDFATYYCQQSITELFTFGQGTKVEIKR	%	78
MOR12923 (antibody, human IgG1, kappa, V domains shown) VH: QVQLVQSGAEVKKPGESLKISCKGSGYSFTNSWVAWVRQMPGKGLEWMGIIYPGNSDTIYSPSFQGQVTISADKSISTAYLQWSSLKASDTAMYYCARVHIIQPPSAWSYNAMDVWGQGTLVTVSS VL: DIQMTQSPSSLSASVGDRVTITCRASQSISTYLNWYQQKPGKAPKLLIFGASNLQSGVPSRFSGSGSGTDFTLTISSLQPEDFATYYCQQSMYLPFTFGQGTKVEIKR	%	83
MOR13768 (antibody, human IgG1, kappa, V domains shown, tested as IgG) VH: QVQLVQSGAEVKKPGESLKISCKGSGYSFTSSWVAWVRQMPGKGLEWMGIIYPGQSDTIYSPSFQGQVTISADKSISTAYLQWSSLKASDTAMYYCARVHIIQPPSAWSYNAMDVWGQGTLVTVSS VL: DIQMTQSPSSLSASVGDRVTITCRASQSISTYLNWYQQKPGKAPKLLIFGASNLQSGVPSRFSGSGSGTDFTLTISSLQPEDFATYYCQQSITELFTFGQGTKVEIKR	%	75
